Target: Cell-associated proTGFβ1 (hGARP-proTGFβ1 and hLRRC33-proTGFβ1)
Assay: MSD-SET, hIgG4

binder	units-text	Cell AVRG (average KD)
Ab30 (antibody, V domains shown) VH: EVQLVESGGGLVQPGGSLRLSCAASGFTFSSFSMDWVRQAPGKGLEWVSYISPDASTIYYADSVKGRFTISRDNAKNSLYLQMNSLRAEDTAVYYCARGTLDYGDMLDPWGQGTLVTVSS VL: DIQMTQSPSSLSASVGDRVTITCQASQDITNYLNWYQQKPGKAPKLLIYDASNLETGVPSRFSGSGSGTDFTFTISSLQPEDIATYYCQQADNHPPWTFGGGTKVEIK	nM	0.081
Ab26 (antibody, V domains shown) VH: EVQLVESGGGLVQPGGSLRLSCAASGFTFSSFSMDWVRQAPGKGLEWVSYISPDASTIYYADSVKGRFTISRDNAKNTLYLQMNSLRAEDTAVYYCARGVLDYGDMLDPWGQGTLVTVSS VL: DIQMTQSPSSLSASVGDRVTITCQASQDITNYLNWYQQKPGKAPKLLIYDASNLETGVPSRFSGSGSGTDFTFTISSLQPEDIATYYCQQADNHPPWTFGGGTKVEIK	nM	0.072
Ab32 (antibody, V domains shown) VH: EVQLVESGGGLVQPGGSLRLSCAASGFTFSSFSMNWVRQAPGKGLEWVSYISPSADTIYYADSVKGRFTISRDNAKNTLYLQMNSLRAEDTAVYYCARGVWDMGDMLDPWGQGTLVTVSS VL: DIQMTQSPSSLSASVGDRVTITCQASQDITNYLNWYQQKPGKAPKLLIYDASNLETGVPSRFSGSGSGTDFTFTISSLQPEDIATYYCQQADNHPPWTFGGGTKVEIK	nM	0.051
